Target: recombinant soluble homotrimeric HA of A/California/4/09 (H1N1) (Influenza A virus A/California/04/2009(H1N1))
Experiment: trimeric HA microarray, transfection supernatant set 5
Conditions: remark: other sources report otherwise
QUANTITY KIND: Trimeric HA Binding: RLU

Check out these entries, answers already filled in.
{"BINDER": "TCN-546 (5089_L08) (antibody, V domains shown) VH: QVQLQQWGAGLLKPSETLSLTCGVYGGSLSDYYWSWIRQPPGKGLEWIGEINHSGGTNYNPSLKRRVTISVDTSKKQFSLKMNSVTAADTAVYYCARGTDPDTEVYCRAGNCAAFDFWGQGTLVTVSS VL: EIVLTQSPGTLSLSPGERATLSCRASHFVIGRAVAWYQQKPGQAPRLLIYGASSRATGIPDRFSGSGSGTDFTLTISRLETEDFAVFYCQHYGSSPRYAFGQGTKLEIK", "OBSERVED VALUE": "1080 RLU"}
{"BINDER": "TCN-539 (5056_A08) (antibody, V domains shown) VH: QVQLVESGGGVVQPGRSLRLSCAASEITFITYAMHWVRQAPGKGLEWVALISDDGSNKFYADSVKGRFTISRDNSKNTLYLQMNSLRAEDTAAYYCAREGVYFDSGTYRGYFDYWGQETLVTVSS VL: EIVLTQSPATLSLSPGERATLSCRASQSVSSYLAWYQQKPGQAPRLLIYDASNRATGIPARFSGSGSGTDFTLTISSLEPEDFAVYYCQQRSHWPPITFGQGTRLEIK", "OBSERVED VALUE": "1050 RLU"}
{"BINDER": "TCN-543 (5081_G23) (antibody, V domains shown) VH: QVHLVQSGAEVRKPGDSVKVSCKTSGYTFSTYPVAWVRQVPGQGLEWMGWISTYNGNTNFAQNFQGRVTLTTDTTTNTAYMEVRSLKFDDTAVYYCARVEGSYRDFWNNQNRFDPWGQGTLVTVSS VL: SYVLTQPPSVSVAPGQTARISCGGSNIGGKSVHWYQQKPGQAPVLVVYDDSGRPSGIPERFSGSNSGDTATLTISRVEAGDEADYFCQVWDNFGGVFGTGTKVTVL", "OBSERVED VALUE": "2340 RLU"}
{"BINDER": "TCN-537 (3194_D21) (antibody, V domains shown) VH: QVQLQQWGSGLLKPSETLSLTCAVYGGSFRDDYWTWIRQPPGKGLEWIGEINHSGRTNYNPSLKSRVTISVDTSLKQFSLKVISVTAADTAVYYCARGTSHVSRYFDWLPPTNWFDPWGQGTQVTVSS VL: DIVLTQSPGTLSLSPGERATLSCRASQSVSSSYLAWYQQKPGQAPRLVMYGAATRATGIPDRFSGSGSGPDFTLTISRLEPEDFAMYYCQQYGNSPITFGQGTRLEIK", "OBSERVED VALUE": "33800 RLU"}
{"BINDER": "TCN-544 (5082_A19) (antibody, V domains shown) VH: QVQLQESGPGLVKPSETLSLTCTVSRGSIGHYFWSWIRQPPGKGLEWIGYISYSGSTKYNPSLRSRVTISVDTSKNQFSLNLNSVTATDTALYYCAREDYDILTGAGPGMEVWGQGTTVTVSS VL: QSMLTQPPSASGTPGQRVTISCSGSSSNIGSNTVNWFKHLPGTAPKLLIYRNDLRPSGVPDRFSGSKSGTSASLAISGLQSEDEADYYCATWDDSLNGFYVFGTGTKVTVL", "OBSERVED VALUE": "706 RLU"}

Ask | Please look up its Trimeric HA Binding: RLU: TCN-538 (3206_O17) (antibody, V domains shown) VH: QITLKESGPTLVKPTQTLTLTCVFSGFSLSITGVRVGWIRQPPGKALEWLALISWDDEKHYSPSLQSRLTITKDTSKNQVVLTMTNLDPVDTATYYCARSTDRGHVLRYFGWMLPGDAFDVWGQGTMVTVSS VL: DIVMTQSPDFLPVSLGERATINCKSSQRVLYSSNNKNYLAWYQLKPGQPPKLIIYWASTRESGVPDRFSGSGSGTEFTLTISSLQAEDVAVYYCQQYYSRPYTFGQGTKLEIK
Reply | 16000 RLU
